Provenance of the data: patent US20050239656A1

- Test system: soybean
- assay_method_text: Test Example 1: foliage treatment, upland pot test
- Type: in vivo, Glycine max Merr.
- measurement_setup: crop, active ingredient 500 g/ha, observed 18th to 23rd day, 0 = non-treated, 100 = complete kill
recorded_metric: Growth controlling degree (%) Soybean
Numbers only; they are read as %.

Worked examples, 3 compounds total:
Documented Growth controlling degree (%) Soybean of Cc1ccc(S(=O)(=O)N(C)C(c2cnccc2C(F)(F)F)C(C)C)cc1 (racemic) : 40

Entry under test: COCC(=O)N(C)C(c1cnccc1C(F)(F)F)C(C)C (stereo not shown) . Its Growth controlling degree (%) Soybean was 60

Growth controlling degree (%) Soybean in this record for CC(C)C(c1cnccc1C(F)(F)F)N(C)S(=O)(=O)c1ccc(F)cc1 (racemic) : 80

More entries:
Sample CC(C)C(c1cnccc1C(F)(F)F)N(C)C(=O)Cc1ccc(F)cc1 (stereo not shown) ; Growth controlling degree (%) Soybean observed: 70

The measured Growth controlling degree (%) Soybean associated with CC(C)C(c1cnccc1C(F)(F)F)N(C)S(=O)(=O)c1ccccc1 (stereo not shown) reads 60

For CCC(CC)C(c1cnccc1C(F)(F)F)N(C)C(=O)Cc1ccccc1 (stereo not shown) the compound record lists Growth controlling degree (%) Soybean as 80
